assayedSystem: T1, recombinant soluble human TREM2 protein (human TREM2 ECD-FlagHis) (human, UniProt Q9NZC2 19-174)
T1 sequence: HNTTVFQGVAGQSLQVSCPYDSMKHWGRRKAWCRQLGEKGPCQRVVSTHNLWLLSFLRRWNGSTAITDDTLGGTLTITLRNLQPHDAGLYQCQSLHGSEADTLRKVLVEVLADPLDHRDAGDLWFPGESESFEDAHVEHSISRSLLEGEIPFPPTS
testProtocol: Octet BLI binning; competitor: load Ab 6E7
testReadout: sandwich binding signal
// return a plain number; no unit text

Please review the entries below; each comes with its answer.
binder: 10E3 (antibody, human IgG2, V domains shown, human IgG2 from hybridoma) VH: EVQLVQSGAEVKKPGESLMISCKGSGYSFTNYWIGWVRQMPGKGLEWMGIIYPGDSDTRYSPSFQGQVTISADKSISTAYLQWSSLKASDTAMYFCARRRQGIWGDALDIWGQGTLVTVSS VL: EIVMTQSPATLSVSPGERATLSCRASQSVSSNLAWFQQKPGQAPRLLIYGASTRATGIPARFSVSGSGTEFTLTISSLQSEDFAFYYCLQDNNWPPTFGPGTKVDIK
testReadout: sandwich binding signal
reportedValue: -0.012
--
binder: 26C10 (antibody, human IgG2, V domains shown, human IgG2 from hybridoma) VH: EVQLVESGGALVQPGGSLRLSCAASGFTFSSFGMSWVRQAPGKGLEWVSYISSSSFTIYYADSVKGRFTISRDNAKNSFYLQMNSLRDEDTAVYFCVREGGITMVRGVSSYGMDVWGQGTTVTVSS VL: SFELTQPPSVSVSPGQTASITCSGDKLGDKYVCWYQQKPGQSPMLVIYQDTKRPSGIPERFSGSNSGNTATLTISGTQAMDEADYYCQAWDSSTVVFGGGTKLTVL
testReadout: sandwich binding signal
reportedValue: 0.594

// sample 32E3 (antibody, human IgG2, V domains shown, human IgG2 from hybridoma) VH: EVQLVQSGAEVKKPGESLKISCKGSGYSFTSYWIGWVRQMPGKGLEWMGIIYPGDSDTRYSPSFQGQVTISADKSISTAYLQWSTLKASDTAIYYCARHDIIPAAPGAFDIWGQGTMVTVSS VL: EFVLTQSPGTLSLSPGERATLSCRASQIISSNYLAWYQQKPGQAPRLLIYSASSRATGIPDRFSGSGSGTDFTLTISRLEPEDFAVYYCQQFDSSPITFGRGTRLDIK , its sandwich binding signal was -0.024

Record 5E3 (antibody, human IgG2, V domains shown, human IgG2 from hybridoma) VH: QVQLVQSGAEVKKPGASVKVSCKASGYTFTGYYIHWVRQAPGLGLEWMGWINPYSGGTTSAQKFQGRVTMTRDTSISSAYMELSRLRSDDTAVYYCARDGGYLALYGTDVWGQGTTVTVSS VL: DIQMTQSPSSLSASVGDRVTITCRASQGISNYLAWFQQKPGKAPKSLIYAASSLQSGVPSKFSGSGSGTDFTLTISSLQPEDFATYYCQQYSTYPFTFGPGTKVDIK . Reported sandwich binding signal: 0.514

Reported sandwich binding signal ( 16B8 (antibody, human IgG4, V domains shown, human IgG4 (G4) from hybridoma) VH: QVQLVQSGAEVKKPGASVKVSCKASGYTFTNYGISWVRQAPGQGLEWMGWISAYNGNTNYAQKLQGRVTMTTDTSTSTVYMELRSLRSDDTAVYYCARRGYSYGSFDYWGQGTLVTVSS VL: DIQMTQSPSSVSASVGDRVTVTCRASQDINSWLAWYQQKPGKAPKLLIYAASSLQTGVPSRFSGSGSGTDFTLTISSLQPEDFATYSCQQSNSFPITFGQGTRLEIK ) = 0.504

// sandwich binding signal value for 24F4 (antibody, human IgG2, V domains shown, human IgG2 from hybridoma) VH: EVQLVQSGAEVKKPGESLKISCKGSGYTFTSYWIGWVRQMPGKGLEWMGIIYPGDSDTRYSPSFQGQVTISVDKSSSTAYLQWSSLKASDTAIYYCTRQAIAVTGLGGFDPWGQGTLVTVSS VL: EIVLTQSPGTLSLSPGERATLSCRASQSVSSSYLAWYQQKPGQAPRLLIYGASSRATGIPDRFSGSGSGTDFTLTISRLEPEDFALYYCQQYDTSPFTFGPGTKVDIK : -0.039

For record 6E7 (antibody, human IgG2, V domains shown, human IgG2 from hybridoma) VH: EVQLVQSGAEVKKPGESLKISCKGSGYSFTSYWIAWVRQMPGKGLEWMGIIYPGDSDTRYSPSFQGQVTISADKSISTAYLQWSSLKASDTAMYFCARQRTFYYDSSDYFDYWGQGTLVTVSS VL: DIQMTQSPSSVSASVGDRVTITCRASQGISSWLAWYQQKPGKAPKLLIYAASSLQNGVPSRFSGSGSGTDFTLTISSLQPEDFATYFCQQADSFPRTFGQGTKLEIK the listed sandwich binding signal is 0.009

Entry under test: 13E7 (antibody, human IgG2, V domains shown, human IgG2 from hybridoma) VH: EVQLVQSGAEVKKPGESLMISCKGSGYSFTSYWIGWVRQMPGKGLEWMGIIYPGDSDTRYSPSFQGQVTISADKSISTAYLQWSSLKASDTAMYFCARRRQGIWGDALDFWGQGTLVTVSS VL: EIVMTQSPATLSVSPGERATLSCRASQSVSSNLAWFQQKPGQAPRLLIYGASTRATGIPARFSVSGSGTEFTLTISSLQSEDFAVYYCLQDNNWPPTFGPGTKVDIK . Its sandwich binding signal was -0.01
